Molecular target: T1, GABARAP Y25H mutant (ITC sample) (human, UniProt O95166 1-117, Y25H)
T1 construct: GABARAP, human ATG8 protein, with Y25H
T1 sequence (O95166 whole entry Y25H): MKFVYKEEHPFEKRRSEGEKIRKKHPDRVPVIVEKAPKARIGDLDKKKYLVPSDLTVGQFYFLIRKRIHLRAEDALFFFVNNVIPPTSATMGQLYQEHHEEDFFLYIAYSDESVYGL
Assay: ITC; PCM1 LIR peptide 0.4 mM titrated into 0.025 mM LC3 or GABARAP protein in 21 steps; 25 °C; 50 mM Tris-HCl pH 7.4, 100 mM NaCl; one-site binding model
Conditions: both partners purified
pKd: −log10 of the molar value.
endpoint: pKd

binder="SDEEDFVKVEDLPLKLTIY (pericentriolar material 1 (PCM1), human, residues 1958-1976; core LIR FVKV; also called PCM1 LIR peptide; PCM LIR peptide; source: synthetic peptide, bought: GenScript Inc) [Human PCM1 LIR-contained peptide (residues 1958-1976)]" endpoint=pKd numeric_value=4.25

The values you see were collected from paper PMC6744468.
